Target: human σ2/TMEM97 receptor (Homo sapiens, UniProt Q5BJF2)
Sequence (Q5BJF2 whole entry): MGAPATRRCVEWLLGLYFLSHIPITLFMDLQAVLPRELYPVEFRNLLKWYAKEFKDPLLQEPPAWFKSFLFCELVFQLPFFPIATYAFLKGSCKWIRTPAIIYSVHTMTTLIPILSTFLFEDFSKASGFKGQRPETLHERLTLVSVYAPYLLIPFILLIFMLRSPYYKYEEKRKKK
Test: Binding assay to human σ2/TMEM97 receptor ([3H]-DTG, transfected HEK-293 membranes)
Settings: class scale, read-out: Binding σ-2 Ki
pKi: −log10 of the molar value.
PARAMETER: pKi

Sample answers from the record:
compound=CCn1nc(-c2ccon2)c(C(=O)NC2CCC3(CC2)CN(CCC(C)(C)C)C3)c1Cl parameter=pKi observed_measurement="> 7.00"
compound="Cc1cc(-c2nn(C)c(Cl)c2CN2CCC(NCCC(C)C)C2)no1 (stereo not shown)" parameter=pKi observed_measurement="6.30 to 7.00"
compound=Cc1conc1-c1nn(C)c(Cl)c1C(=O)N1CCC2(CCN(CCC(C)(C)C)CC2)CC1 parameter=pKi observed_measurement="> 7.00"

Input: Lab note: need pKi with human σ2/TMEM97 receptor (Homo sapiens, UniProt Q5BJF2) for entry Cc1cc(-c2nn(C)c(Cl)c2C(=O)N2CCCCC(N(C)CCc3ccccc3)C2)no1 (stereo not shown) , please look it up.
Output: 6.30 to 7.00

Data origin, for the record: patent US20240239781A1
